# measuredOn: T1, Bmh1 (S. cerevisiae 14-3-3 isoform) (S. cerevisiae, UniProt P29311 1-267)
# T1 sequence (looked up): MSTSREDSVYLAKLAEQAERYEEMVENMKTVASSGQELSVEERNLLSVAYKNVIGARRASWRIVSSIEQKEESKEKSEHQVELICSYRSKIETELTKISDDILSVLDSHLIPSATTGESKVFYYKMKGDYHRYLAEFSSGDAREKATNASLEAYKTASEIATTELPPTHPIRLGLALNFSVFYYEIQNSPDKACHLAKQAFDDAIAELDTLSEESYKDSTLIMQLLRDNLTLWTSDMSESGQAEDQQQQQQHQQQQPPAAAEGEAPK
# assayComment: fluorescence polarisation
Where no end group is shown, it is not given here. [ ]: non-standard residue; d: D form. The star is where a group is joined. FITC = O=C1OC2(c3ccc(O)cc3Oc3cc(O)ccc32)c2ccc(NC(=S)*)cc21; pT = C[C@@H](OP(=O)(O)O)[C@H](N)C(=O)O

binder: {FITC}-RRCF[pT]LLFP [FITC-labeled synthetic Trk1 peptide (FITC-RRCFpTLLFP) with phosphorylated Thr900]
unitOfMeasure: µM
Kd: 4
